Biological target: the molecule itself
Experiment: SEC; RitRFL wild-type and mutants; Agilent 1220 HPLC, BioBasic SEC-300A column, 50 mM TRIS pH 8.0, 150 mM NaCl, 10 mM DTT; proteins pre-treated with 10 mM DTT; 0.5 ml/min, ambient temperature

# protein, stoichiometry N
records = [
    ("RitR full-length, Val93 to Ala Gate mutant (natural protein, RitR, Streptococcus pneumoniae strain R800, full-length, Ala substitution of Gate residue Val93; also called RitRFL Val93 mutant; source: E. coli BL21(DE3) or BL21(DE3)-Star, purified (Ni2+ agarose, ULP1 cleavage, subtractive Ni2+ column); not shown: His6, N-terminal, cleaved; SUMO, N-terminal, cleaved) MGKRILLLEKERNLAHFLSLELQKEQYRVDLVEEGQKALSMALQTDYDLILLNVNLGDMMAQDFAEKLSRTKPASVIMILDHWEDLQEELEVAQRFAVSYIYKPVLIENLVARISAIFRGRDFIDQHCSLMKVPRTYRNLRIDVEHHTVYRGEEMIALTRREYDLLATLMGSKKVLTREQLLESVWKYESATETNIVDVYIRYLRSKLDVKGQKSYIKTVRGVGYTMQE", 2),
]
